- Subject Of Test: Plasminogen (Homo sapiens)
- Sequence (P00747 97-580 limits assumed): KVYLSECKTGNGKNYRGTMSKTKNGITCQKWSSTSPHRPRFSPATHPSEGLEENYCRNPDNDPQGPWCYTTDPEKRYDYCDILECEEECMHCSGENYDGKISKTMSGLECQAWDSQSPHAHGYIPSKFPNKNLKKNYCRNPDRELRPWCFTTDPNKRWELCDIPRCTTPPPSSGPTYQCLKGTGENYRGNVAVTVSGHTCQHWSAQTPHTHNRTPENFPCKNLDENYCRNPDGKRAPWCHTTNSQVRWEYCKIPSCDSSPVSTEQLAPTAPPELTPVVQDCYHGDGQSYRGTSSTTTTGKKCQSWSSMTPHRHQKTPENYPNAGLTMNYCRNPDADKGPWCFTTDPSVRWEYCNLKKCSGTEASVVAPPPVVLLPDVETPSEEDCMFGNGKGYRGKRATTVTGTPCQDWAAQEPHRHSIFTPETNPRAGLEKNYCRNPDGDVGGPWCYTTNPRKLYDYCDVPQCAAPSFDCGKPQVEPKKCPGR
- Sequence (P00747 581-810 limits assumed): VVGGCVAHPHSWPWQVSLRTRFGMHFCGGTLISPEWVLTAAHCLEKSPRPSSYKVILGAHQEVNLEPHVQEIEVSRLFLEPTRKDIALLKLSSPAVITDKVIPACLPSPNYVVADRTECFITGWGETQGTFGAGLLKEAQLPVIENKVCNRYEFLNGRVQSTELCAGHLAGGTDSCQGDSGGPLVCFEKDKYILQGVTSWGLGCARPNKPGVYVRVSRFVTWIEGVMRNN
- Assay Explanation: Inhibition of plasmin
Endpoint: EC50 (µM)
Numbers only; they are read as µM.

Q) Notebook: pull reported EC50 for Plasminogen (Homo sapiens), entry C[C@H]1C[C@@H](C(=O)N[C@H](CO)CCCN=C(N)N)N(C(=O)[C@@H](CCc2ccc(O)cc2)NC(=O)[C@H](O)Cc2ccc(O)cc2)C1
A) 4.9

###

- Subject Of Test: Prothrombin (Homo sapiens, UniProt P00734)
- Assay Explanation: Inhibition of thrombin
Endpoint: pEC50
pEC50 is defined as minus the log10 of a concentration measured in mol/L.

Q) Name the reported pEC50 value associated with the molecule C[C@H]1C[C@@H](C(=O)N[C@H](CO)CCCN=C(N)N)N(C(=O)[C@@H](CCc2ccc(O)cc2)NC(=O)[C@H](O)Cc2ccc(O)cc2)C1
A) 5.12
